Assay: soluble on expression in E. coli; label from the status in PepcDB or PDB records
testReadout: soluble on expression in E. coli

RAKQQAAKSERRVRELTEATNDILWEFTADLSEVLVINSAYEDIWGRSVAKLRENPHDFLNGIHPEDRELMKDTMQSLMDGESADVECRVNATEEYQRWVWIQGEPITNDAGETVRVAGFARDIT :: soluble
MSLENLQTNFSLVQGSTKKLNGMGDDGSPPAKKMITDIHVNGKTINKVPTVKKEHLDDYGEAPVETDGEHVKRTCTSVPETLHLNPSLKHTLAQFHLSSQSSLGGPAAFSARHSQESMSPTVFLPLPSPQVLPGPLLIPSDSSTELTQTVLEGESISCFQVGGEKRLCLPQVLNSVLREFTLQQINTVCDELYIYCSRCTSDQLHILKVLGILPFNAPSCGLITLTDAQRLCNALLRPREGHHHHHH :: soluble

This collection of values is drawn from the DeepSol protein solubility set.
